Target: hERG potassium channels (Homo sapiens (Human), UniProt Q12809)
Sequence (Q12809 whole entry): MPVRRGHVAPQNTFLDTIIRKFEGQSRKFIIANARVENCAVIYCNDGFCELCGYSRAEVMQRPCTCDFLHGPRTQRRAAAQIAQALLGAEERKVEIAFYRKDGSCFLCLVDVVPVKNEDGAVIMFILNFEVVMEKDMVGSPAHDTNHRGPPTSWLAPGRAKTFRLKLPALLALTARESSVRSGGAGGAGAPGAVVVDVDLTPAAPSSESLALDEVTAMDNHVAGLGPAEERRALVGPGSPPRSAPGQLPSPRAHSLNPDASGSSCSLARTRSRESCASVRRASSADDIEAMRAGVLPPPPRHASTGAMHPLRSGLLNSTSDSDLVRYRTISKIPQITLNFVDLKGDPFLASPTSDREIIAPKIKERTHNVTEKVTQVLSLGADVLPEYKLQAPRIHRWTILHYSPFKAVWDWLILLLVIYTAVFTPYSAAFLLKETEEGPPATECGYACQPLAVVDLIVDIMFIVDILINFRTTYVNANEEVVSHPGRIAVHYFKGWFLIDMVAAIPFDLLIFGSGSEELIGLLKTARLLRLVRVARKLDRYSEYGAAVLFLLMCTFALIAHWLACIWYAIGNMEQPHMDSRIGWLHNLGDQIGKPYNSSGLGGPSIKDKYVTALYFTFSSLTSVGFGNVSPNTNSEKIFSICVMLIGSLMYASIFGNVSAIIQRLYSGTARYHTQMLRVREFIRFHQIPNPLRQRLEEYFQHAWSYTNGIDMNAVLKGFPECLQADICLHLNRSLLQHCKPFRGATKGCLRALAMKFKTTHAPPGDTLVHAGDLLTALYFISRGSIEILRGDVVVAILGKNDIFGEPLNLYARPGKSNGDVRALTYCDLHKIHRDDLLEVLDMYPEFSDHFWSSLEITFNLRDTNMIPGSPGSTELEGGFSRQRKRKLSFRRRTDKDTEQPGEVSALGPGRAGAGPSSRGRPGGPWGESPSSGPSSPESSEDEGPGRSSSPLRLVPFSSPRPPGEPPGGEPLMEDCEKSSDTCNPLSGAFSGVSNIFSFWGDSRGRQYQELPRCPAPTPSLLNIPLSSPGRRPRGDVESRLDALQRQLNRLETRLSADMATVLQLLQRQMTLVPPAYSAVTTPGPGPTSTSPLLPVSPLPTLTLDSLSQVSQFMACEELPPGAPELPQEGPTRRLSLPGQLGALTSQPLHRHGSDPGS
Assay: hERG inhibitory activity, whole-cell patch clamp in CHO-hERG cells
Conditions: read-out: hERG inhibitory activity IC50; CHO-hERG cells, whole-cell patch clamp, tail current at -50 mV
Readout Kind: pIC50
Please note pIC50 is a logarithmic value: minus log10 of concentration in mol/L. Answer with that number alone.

Solved entries:
CN1CCC(N(Cc2ccc(F)cn2)C(=O)NCc2ccc(OCCCCF)cc2)CC1 : 5.84
CCN1CCC(N(Cc2ccc(F)cn2)C(=O)NCc2ccc(OCC(F)(F)F)cc2)CC1 : 6.30
CN1CCC(N(Cc2ccc(F)cn2)C(=O)NCc2ccc(OCC(C)(C)F)cc2)CC1 : 5.86
CN1CCC(N(Cc2ncc(F)cc2F)C(=O)NCc2ccc(OC(C)(C)C)cc2)CC1 : 6.17
CN1CCC(N(Cc2ccc(F)cn2)C(=O)NCc2ccc(OCC(F)(F)F)cc2)CC1 : 6.09
CN1CCC(N(Cc2ccc(F)cc2)C(=O)NCc2ccc3c(c2)CC(C)(C)O3)CC1 : 5.73

State its pIC50 for this compound: CN1CCC(N(Cc2ccc(F)cn2)C(=O)NCc2ccc(OCCC(F)(F)F)cc2)CC1
6.16

State its pIC50 for this compound: CN1CCC(N(Cc2ccc(F)cn2)C(=O)NCc2ccc(OCC(F)F)cc2)CC1
5.76

State its pIC50 for this compound: CN1CCC(N(Cc2ccc(F)cn2)C(=O)NCc2ccc3c(c2)CCO3)CC1
4.98

---

Molecular target: 5-HT2A receptor (Homo sapiens (Human), UniProt P28223)
Sequence (P28223 whole entry): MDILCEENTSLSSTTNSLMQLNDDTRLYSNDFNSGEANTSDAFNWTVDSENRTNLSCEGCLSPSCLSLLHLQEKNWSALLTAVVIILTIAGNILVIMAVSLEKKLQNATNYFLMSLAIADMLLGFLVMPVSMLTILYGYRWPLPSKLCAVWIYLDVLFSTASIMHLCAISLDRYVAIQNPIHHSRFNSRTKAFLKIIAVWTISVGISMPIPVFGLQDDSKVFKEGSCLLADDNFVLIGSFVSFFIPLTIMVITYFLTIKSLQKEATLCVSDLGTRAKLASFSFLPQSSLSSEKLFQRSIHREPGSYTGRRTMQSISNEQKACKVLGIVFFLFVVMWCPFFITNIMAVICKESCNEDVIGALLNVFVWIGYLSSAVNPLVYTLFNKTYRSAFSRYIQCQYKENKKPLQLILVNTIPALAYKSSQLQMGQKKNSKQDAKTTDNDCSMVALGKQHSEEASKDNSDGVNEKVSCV
Assay: Screening for 5-HT2A inverse agonistic activity (NIH3T3-5-HT2A R cells, Bright-Glo luciferase, 120 h)
Type: cell-based
Conditions: NIH3T3-5HT2AR cells, cell inhibition rate
IC50 values by entry
State just the number; it will be interpreted in nM.

Solved entries:
CC(C)C1Cc2cc(CNC(=O)N(Cc3ccc(F)cn3)C3CCN(C)CC3)ccc2O1 (centres unmarked) : 4.29
CN1CCC(N(Cc2ccc(F)cc2F)C(=O)NCc2ccc(OCCF)cc2)CC1 : 14.4
CN1CCC(N(Cc2ccc(F)cc2)C(=O)NCc2ccc3c(c2)CC(C)(C)O3)CC1 : 30
CN1CCC(N(Cc2ccc(F)cn2)C(=O)NCc2ccc(OC(CF)CF)cc2)CC1 : 7.04
CN1CCC(N(Cc2ccc(F)cn2)C(=O)NCc2ccc3c(c2)CCO3)CC1 : 11.1

State its IC50 for this compound: CCN1CCC(N(Cc2ccc(F)cn2)C(=O)NCc2ccc3c(c2)CC(C)(C)O3)CC1
22.5

State its IC50 for this compound: CCN1CCC(N(Cc2ccc(F)cn2)C(=O)NCc2ccc(OCC(F)(F)F)cc2)CC1
12.3

State its IC50 for this compound: CN1CCC(N(Cc2ccc(F)cn2)C(=O)NCc2ccc3c(c2)CC(C)(C)O3)CC1
2.54

---

Molecular target: hERG potassium channels (Homo sapiens (Human))
Test: hERG inhibitory activity, whole-cell patch clamp in CHO-hERG cells
Details: read-out: hERG inhibitory activity IC50; CHO-hERG cells, whole-cell patch clamp, tail current at -50 mV
IC50 values by entry
State just the number; it will be interpreted in nM.

Solved entries:
CN1CCC(N(Cc2ccc(F)cn2)C(=O)NCc2ccc(OC(C)(C)C)cc2)CC1 [Compound 18] : 850
CN1CCC(N(Cc2ccc(F)cn2)C(=O)NCc2ccc(OCCCC(F)(F)F)cc2)CC1 [Compound 82] : 500
CC(C)OCc1ccc(CNC(=O)N(Cc2ccc(F)cc2)C2CCN(C)CC2)cc1 [Compound 21] : 910
CN1CCC(N(Cc2ccc(F)cn2)C(=O)NCc2ccc3c(c2)C=CC(C)(C)O3)CC1 [Compound 99] : 650
CC(C)C(O)Cc1ccc(CNC(=O)N(Cc2ccc(F)cc2)C2CCN(C)CC2)cc1 (centres unmarked) [Compound 25] : 1030

State its IC50 for this compound: CC(C)COc1ccc(CNC(=O)N(Cc2ccc(F)cc2)C2CCN(C)CC2)cn1 [Compound 20]
680

State its IC50 for this compound: CN1CCC(N(Cc2ccc(F)cn2)C(=O)NCc2ccc3c(c2)CCC(C)(C)O3)CC1 [Compound 98]
1460

State its IC50 for this compound: CN1CCC(N(Cc2ccc(F)cc2)C(=O)NCc2ccc(OCC(F)(F)F)cc2)CC1 [Compound 65]
670

State its IC50 for this compound: CC(C)COc1ccc(CNC(=O)N(Cc2ccc(F)nn2)C2CCN(C)CC2)cc1 [Compound 91]
580

State its IC50 for this compound: CN1CCC(N(Cc2ncc(F)cc2F)C(=O)NCc2ccc3c(c2)CC(C)(C)O3)CC1 [Compound 61]
2550

State its IC50 for this compound: CN1CCC(N(Cc2ccc(F)cn2)C(=O)NCc2ccc3c(c2)CC(C)(C)O3)CC1 [Compound 24]
3610

State its IC50 for this compound: CN1CCC(N(Cc2ccc(F)cn2)C(=O)NCc2ccc(OCC(F)(F)F)c(F)c2)CC1 [Compound 26]
530

State its IC50 for this compound: CCN1CCC(N(Cc2ccc(F)cn2)C(=O)NCc2ccc3c(c2)CC(C)(C)O3)CC1 [Compound 48]
2400

---

Assay: In-vivo pharmacokinetic test in rats after intragastric administration
Details: rat, po, 46.7 umol/kg, SD rats, 20% Solutol, plasma
Readout Kind: Tmax (h)
State just the number; it will be interpreted in h.

CC(C)COc1ccc(CNC(=O)N(Cc2ccc(F)cc2)C2CCN(C)CC2)cc1 [Pimavanserin, reference compound] : 2.75

State its Tmax for this compound: CN1CCC(N(Cc2ccc(F)cn2)C(=O)NCc2ccc(OCC(F)(F)F)cc2)CC1
5.88

---

Biological target: UniProt:Q12809
Assay: hERG inhibitory activity, whole-cell patch clamp in CHO-hERG cells
Readout Kind: IC50 (µM)
State just the number; it will be interpreted in µM.

State its IC50 for this compound: CN1CCC(N(Cc2ccc(F)cn2)C(=O)NCc2ccc(OCCCF)cc2)CC1
1.55

---

Target: 5-HT2A receptor (Homo sapiens (Human), UniProt P28223)
Assay: Screening for 5-HT2A inverse agonistic activity (NIH3T3-5-HT2A R cells, Bright-Glo luciferase, 120 h)
Type: cell-based
Conditions: NIH3T3-5HT2AR cells, cell inhibition rate
IC50 values by entry
State just the number; it will be interpreted in µM.

CN1CCC(N(Cc2ccc(F)cn2)C(=O)NCc2ccc(OC(F)(F)C(F)(F)F)cc2)CC1 [Compound 38] : 0.01
CN1CCC(N(Cc2ccc(F)cn2)C(=O)NCc2ccc3c(c2)C=CC(C)(C)O3)CC1 [Compound 99] : 0.0333
CN1CCC(N(Cc2ccc(F)cn2)C(=O)NCc2ccc(OCC(C)(C)F)cc2)CC1 [Compound 47] : 0.00922
CN1CCC(N(Cc2ccc(F)cn2)C(=O)NCc2ccc(OC(C)(C)C)cc2)CC1 [Compound 18] : 0.00112
CN1CCC(N(Cc2ccc(F)cn2)C(=O)NCc2cc(Br)c3c(c2)CC(C)(C)O3)CC1 [Compound 77] : 0.00644

State its IC50 for this compound: CN1CCC(N(Cc2ccc(F)cn2)C(=O)NCc2ccc(OCCF)cc2)CC1 [Compound 60]
0.0164

State its IC50 for this compound: CN1CCC(N(Cc2ccc(F)cn2)C(=O)NCc2ccc(OCCCC(F)(F)F)cc2)CC1 [Compound 82]
0.00195

State its IC50 for this compound: CN1CCC(N(Cc2ccc(F)cn2)C(=O)NCc2ccc(OCCC(F)(F)F)cc2)CC1 [Compound 55]
0.00223

---

pIC50 values by entry
Target: UniProtKB Q12809
Assay: hERG inhibitory activity, whole-cell patch clamp in CHO-hERG cells
Conditions: read-out: hERG inhibitory activity IC50; CHO-hERG cells, whole-cell patch clamp, tail current at -50 mV
Please note pIC50 is a logarithmic value: minus log10 of concentration in mol/L. Answer with that number alone.

Solved entries:
CC(C)c1cc2cc(CNC(=O)N(Cc3ccc(F)cn3)C3CCN(C)CC3)ccc2o1 [Compound 50] : 6.26
CC(C)OCc1ccc(CNC(=O)N(Cc2ccc(F)cn2)C2CCN(C)CC2)cc1 [Compound 37] : 5.40

Alright, here's another molecule for you.
State its pIC50 for this molecule: CN1CCC(N(Cc2ccc(F)cn2)C(=O)NCc2cc(Cl)c3c(c2)CC(C)(C)O3)CC1 [Compound 71]
5.48

---

AUC(0-t) values by entry
Assay: In-vivo pharmacokinetic test in rats after intragastric administration
Settings: rat, po, 46.7 umol/kg, SD rats, 20% Solutol, plasma
State just the number; it will be interpreted in µM·h.

CC(C)COc1ccc(CNC(=O)N(Cc2ccc(F)cc2)C2CCN(C)CC2)cc1 [Pimavanserin, reference compound] : 4.29

State its AUC(0-t) for this molecule: CN1CCC(N(Cc2ccc(F)cn2)C(=O)NCc2ccc(OCC(F)(F)F)cc2)CC1 [Compound 59]
17
